IC50 for WD repeat-containing protein 5 (Homo sapiens) - collated from the literature.

Ask: Bench note: what IC50 did CN1CCN(c2ccc([N+](=O)[O-])cc2NS(=O)(=O)c2ccc(F)cc2)CC1 show?
Reply: > 20 µM

Ask: Now try Cc1c(F)ccc(C(=O)Nc2cc([N+](=O)[O-])ccc2NCCN)c1Cl .
Reply: > 20 µM

Ask: Would you kindly repeat that for CC(=O)N[C@@H](C)C(=O)N[C@H](C(=O)N[C@@H](C)C(N)=O)c1ccc(NC(=N)N)cc1 ?
Reply: > 10 µM

Ask: Record: COc1ccc(S(=O)(=O)Nc2cc([N+](=O)[O-])ccc2N2CCN(C)CC2)cc1
Reply: > 20 µM

Ask: What do you get for Cc1c(F)ccc(C(=O)Nc2ccc(-c3ccc(N)cc3)cc2N2CCN(C)CC2)c1Cl ?
Reply: > 20 µM

Ask: Further, for CN1CCN(c2ccc(-c3ccc([N+](=O)[O-])cc3)cc2NC(=O)c2ccc(F)c([N+](=O)[O-])c2)CC1 ?
Reply: 1.09 µM

Ask: Try the molecule Cc1c(F)ccc(C(=O)Nc2ccc(-c3ccc(C(=O)O)cc3)cc2N2CCN(C)CC2)c1Cl
Reply: > 20 µM

Ask: Same thing, different molecule: Cc1c(F)c(N)cc(C(=O)Nc2cc(-c3ccc(NC(=O)CN)cc3)ccc2N2CCN(C)CC2)c1Cl
Reply: 0.0625 µM

Ask: Try this molecule too: Cc1c(F)ccc(C(=O)Nc2cc(N)ccc2N2CCN(C)CC2)c1Cl
Reply: > 20 µM
